In this section we review reported self-cleavage values for a set of variants.
B1: HDV Ribozyme (parent)
chain: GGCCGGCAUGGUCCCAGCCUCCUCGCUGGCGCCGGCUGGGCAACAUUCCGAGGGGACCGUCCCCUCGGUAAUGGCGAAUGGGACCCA

Variants of: B1
Assay: self-cleavage, relative activity (ratio to wild type); higher = more cleavage; co-transcriptional
Reported endpoint: self-cleavage

> print(dat)
    mutation.spec  reported.endpoint  observed
 1      G53U G73U      self-cleavage     0.472
 2      C33A C49U      self-cleavage     0.212
 3       C4G C22U      self-cleavage    0.0449
 4      C33A A42G      self-cleavage         0
 5      G28A G81C      self-cleavage    0.0674
 6      G73A G80A      self-cleavage    0.0652
 7       A8U G81A      self-cleavage     0.148
 8      C48U G81A      self-cleavage     0.308
 9      G35U A77U      self-cleavage     0.175
10      C13A G35A      self-cleavage    0.0339
11      U12C U23C      self-cleavage     0.755
12      G59A A87C      self-cleavage     0.974
13      G34A A43U      self-cleavage         0
14      G31U C86G      self-cleavage     0.451
15      U23A G29U      self-cleavage         0
16      U23A C32A      self-cleavage     0.251
17      C48G G80A      self-cleavage       0.4
18      G40C G53C      self-cleavage      0.17
19      C48U C75U      self-cleavage     0.211
20        G2A G5C      self-cleavage    0.0419
21      C36U U69A      self-cleavage     0.627
22      U60G G81A      self-cleavage     0.269
23      C48A G73C      self-cleavage     0.618
24      C32U A45U      self-cleavage     0.631
25      G74C G80C      self-cleavage     0.183
26       G2C C86A      self-cleavage     0.128
27      G50A U79G      self-cleavage     0.629
28       G2C G17C      self-cleavage    0.0536
29      C22U G52C      self-cleavage     0.635
30      C57G C86U      self-cleavage     0.815
31      C30U G74A      self-cleavage    0.0329
32      C41G A56U      self-cleavage     0.746
33      U27C A43C      self-cleavage     0.172
34      C61A G76C      self-cleavage      1.08
35      C18A G39A      self-cleavage    0.0739
36      C33G G80C      self-cleavage         0
37       G1A A43C      self-cleavage    0.0415
38       C4G C86A      self-cleavage     0.554
39      G11A C62U      self-cleavage     0.354
40      C30U A83C      self-cleavage     0.332
41      U12G G74C      self-cleavage     0.151
42       C7G U47G      self-cleavage         0
43      U46G C61G      self-cleavage     0.649
44      G11U A77G      self-cleavage     0.283
45       G1C A51G      self-cleavage     0.396
46      C18G U23A      self-cleavage         0
47      G74C G76U      self-cleavage     0.175
48      C14A G28U      self-cleavage    0.0733
49      U72C A87U      self-cleavage     0.595
50      G52A G73C      self-cleavage     0.337
51      C13A C86G      self-cleavage     0.178
52      C61A C63G      self-cleavage     0.499
53      G28U G54U      self-cleavage    0.0712
54      C15U U60C      self-cleavage     0.969
55      C19G C33U      self-cleavage     0.151
56      G52A C63G      self-cleavage     0.415
57      U37A A70U      self-cleavage     0.196
58       C3U U65C      self-cleavage      0.78
59       C4U G10C      self-cleavage      0.63
60      C61G C64G      self-cleavage     0.527
61      C32A G53C      self-cleavage    0.0923
62      A43U C66G      self-cleavage      0.47
63      C19A U46C      self-cleavage    0.0665
64      C84U C86U      self-cleavage     0.604
65      G25U G82C      self-cleavage    0.0755
66      U27C G59A      self-cleavage     0.742
67      G29U A70C      self-cleavage    0.0791
68      C63U G81A      self-cleavage     0.521
69       G6C G17A      self-cleavage         0
70      G53U A87U      self-cleavage     0.969
71       G5U G76U      self-cleavage     0.529
72      C30A C49G      self-cleavage     0.232
73       C3A C75U      self-cleavage     0.128
74      A16G G52U      self-cleavage      1.07
75      A45C U69G      self-cleavage     0.974
76      G68C A70C      self-cleavage      0.63
77      G38C C62G      self-cleavage     0.208
78      G68C G76U      self-cleavage      1.23
79      G50U C75G      self-cleavage     0.277
